- system: TRPA1 receptor (Homo sapiens, UniProt O75762);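 as to TRPA1 Pre-incubation: values above 100 mean more active than the control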
- Construct: expressed in transfected cells; host or cells: HEK cell line
- Sequence (O75762 whole entry): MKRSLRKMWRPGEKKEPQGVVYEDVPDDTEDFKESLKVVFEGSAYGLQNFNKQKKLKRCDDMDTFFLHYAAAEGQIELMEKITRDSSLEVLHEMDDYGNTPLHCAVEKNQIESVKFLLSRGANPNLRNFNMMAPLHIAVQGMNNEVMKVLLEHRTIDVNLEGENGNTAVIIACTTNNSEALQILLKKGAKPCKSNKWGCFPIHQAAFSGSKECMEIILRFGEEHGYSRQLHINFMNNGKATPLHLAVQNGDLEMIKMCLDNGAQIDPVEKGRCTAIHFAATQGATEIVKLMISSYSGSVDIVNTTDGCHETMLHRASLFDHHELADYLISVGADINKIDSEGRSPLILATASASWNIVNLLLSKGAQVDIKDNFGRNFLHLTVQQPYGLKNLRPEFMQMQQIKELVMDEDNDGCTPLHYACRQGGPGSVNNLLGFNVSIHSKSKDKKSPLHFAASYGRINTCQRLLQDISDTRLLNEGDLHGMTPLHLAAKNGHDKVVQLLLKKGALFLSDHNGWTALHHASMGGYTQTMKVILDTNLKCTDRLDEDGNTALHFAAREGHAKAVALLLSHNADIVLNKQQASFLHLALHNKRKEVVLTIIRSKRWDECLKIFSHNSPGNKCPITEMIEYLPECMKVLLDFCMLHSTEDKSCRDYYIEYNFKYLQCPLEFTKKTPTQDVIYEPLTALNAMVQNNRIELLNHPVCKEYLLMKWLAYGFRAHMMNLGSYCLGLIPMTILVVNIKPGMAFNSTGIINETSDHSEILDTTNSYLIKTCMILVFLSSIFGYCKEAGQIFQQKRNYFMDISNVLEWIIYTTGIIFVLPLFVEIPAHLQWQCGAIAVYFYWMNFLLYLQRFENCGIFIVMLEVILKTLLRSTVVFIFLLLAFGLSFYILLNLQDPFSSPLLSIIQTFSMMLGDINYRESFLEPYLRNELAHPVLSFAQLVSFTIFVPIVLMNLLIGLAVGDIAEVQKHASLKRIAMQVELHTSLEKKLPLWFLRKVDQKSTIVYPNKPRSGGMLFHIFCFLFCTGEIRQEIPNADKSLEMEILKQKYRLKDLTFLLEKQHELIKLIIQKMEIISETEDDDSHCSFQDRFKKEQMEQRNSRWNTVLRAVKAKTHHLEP
- procedure text: cell-based
- Design: dose or concentration left out as unconfirmed
- measurement setup: HEK293; percentage of the control (allyl isothiocyanate) calcium count; material dissolved in DMSO at 100 micromolar; HEK cells with TRPA1; pre-incubation; read-out: TRPA1 Pre-incubation
Entry flag: yes if activation reaches 80%; no if it does not.

# example entries with known answers
CCCCCCCCCCCC(C)=O [2-Tridecanone] | no
CCC1OC(=O)C(O)=C1C (stereo not shown) | no
CCOC(=O)c1ccccc1O [Ethyl Salicylate] | yes
CCOC(=O)C(C)O (stereo not shown) [Ethyl Lactate] | no
CC(C)c1ccc(C=O)cc1 [Cuminaldehyde] | no
C=CCOC(=O)CCCCC [Allyl Hexanoate] | yes
CCC(C)C(=O)OCCC(C)C (stereo not shown) [3-Methylbutyl-2-Methylbutanoate] | no
O=C(c1ccccc1)C(O)c1ccccc1 (stereo not shown) [Benzoin] | no

In plain terms: is recorded activation at least 80% for CCCCCCCC(C)=O [Material 2-Nonanone, 2-Nonanone] ? no

In plain terms: is recorded activation at least 80% for CCCCCCCCCCCC(=O)OCC [Ethyl Laurate] ? no

In plain terms: is recorded activation at least 80% for CCCCCC=CC=CC(=O)OCCC [Propyl 2,4-Decadienoate] ? yes

---

Here the recorded TRPA1 Pre-incubation is given for each entry.
- system: TRPA1 receptor (Homo sapiens);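 as to TRPA1 Pre-incubation: values above 100 mean more active than the control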
- Construct: expressed in transfected cells; host or cells: HEK cell line
- Format: cell-based
- measurement setup: percentage of the control (allyl isothiocyanate) calcium count, material dissolved in DMSO at 100 micromolar, HEK cells with TRPA1
Output spec: scalar in %, unitless text.

Below are worked cases with known answers.
C=CCCC(=O)/C=C/C1C(C)=CCCC1(C)C (stereo not drawn) [Allyl Alpha-Ionone] | 64.99
CC1C2CC(CC2C2CCCC(O)C2)C1(C)C (stereo not drawn) [Sandela] | 94.17
CCCC(=O)OC(C)c1ccccc1 (stereo not drawn) [methyl benzyl butyrate] | 116.22
CC(=O)CCc1ccc(O)cc1 [4-P-hydroxyphenyl-2-butanone] | 63.07
CC/C=C\CCO [Hexen-1-ol] | 80.84

Kindly consider the entry below.
Entry CCOC(=O)CSC [Ethyl Methylthio Acetate] , TRPA1 Pre-incubation reported as 55.69

---

- system: TRPA1 receptor (Homo sapiens, UniProt O75762)
- Construct: expressed in transfected cells; host or cells: HEK cell line
- procedure text: cell-based
- measurement setup: HEK293; percentage of the control (allyl isothiocyanate) calcium count; material dissolved in DMSO at 100 micromolar; HEK cells with TRPA1; direct addition; read-out: TRPA1 Direct addition
property label: activation at 100 µM (%)
Output spec: scalar in %, unitless text.

Below are worked cases with known answers.
CCCCCCCCCC(C)C=O (stereo not drawn) [2-Methylundecanal] | 0.82
Cc1occc(=O)c1O [Maltol] | -2.79
CCCCCCO [Hexyl Alcohol] | -0.22
CC(=O)c1ccccc1 [Acetophenone] | 0.64
CCC(C)C(=O)OCCC(C)C (stereo not drawn) [3-Methylbutyl-2-Methylbutanoate] | -1.18

Entry COc1cccc(OC)c1 [M-Dimethoxybenzene] , activation at 100 µM reported as -0.59

Entry CCCCCCCCCCCC(=O)O [Lauric Acid] , activation at 100 µM reported as -2.82

---

- system: TRPA1 receptor (Homo sapiens, UniProt O75762);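 as to TRPA1 Pre-incubation: values above 100 mean more active than the control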
- Construct: expressed in transfected cells; host or cells: HEK cell line
- procedure text: cell-based
- Description: The term “TRPA1 activator” as used herein refers to any component which at a concentration of 1 mM gives a calcium flux count of at least 1000 counts above the background level of calcium present in the cell according to the FLIPR method as discussed herein. The term “count” is defined as the change in fluorescence of the transfected cell lines due to the influx of calcium across the cell membrane, which reacts with the calcium sensitive dye present within the cells. […]
property label: TRPA1 Pre-incubation (%)
Output spec: scalar in %, unitless text.

CC(=O)[O-].CC(=O)[O-].[Zn+2] [Zinc Acetate] | 21.67
CC(O)C(=O)[O-].CC(O)C(=O)[O-].[Mg+2] (centres unmarked) [Magnesium Lactate] | 58.12
O=C([O-])C(=O)[O-].[Zn+2] [Zinc Oxalate] | 18.11
O=S(=O)([O-])NC1CCCCC1.[Na+] [Sodium Cyclamate] | 48.66
[O]=[Zn] [Zinc Oxide] | 71.09
O=S(=O)([O-])[O-].[Zn+2] [Zinc Sulfate] | 21.7
CC=Cc1ccc(OCc2ccccc2)c(OC)c1 | 30.8

Kindly consider the entry below.
Entry CC1=CC(=O)[N-]S(=O)(=O)O1.[K+] [Acesulfame K] , TRPA1 Pre-incubation reported as 95.57

---

- system: TRPA1 receptor (Homo sapiens)
- Construct: expressed in transfected cells; host or cells: HEK cell line
- procedure text: cell-based
- measurement setup: HEK293; percentage of the control (allyl isothiocyanate) calcium count; material dissolved in DMSO at 100 micromolar; HEK cells with TRPA1; direct addition; read-out: TRPA1 Direct addition
Residues, ends and D or L forms follow the SMILES beside them.
property label: activation at 100 µM (%)
Output spec: scalar in %, unitless text.

Below are worked cases with known answers.
CCCCCOC(=O)c1ccco1 [Amyl 2-Furoate] | -2.39
CC1=CCC(=C(C)C)CC1 | -17.2
CCCCCC=CC=CC(=O)OCCC [Propyl 2,4-Decadienoate] | -15.7
COC(=O)[C@H](Cc1ccccc1)NC(=O)[C@@H](N)CC(=O)O [Aspartame] (H-Asp-Phe-OMe) | -2.15
CCC=C1OC(=O)c2ccccc21 [3-Propylidenephthalide] | 116

Entry COC(Cc1ccccc1)OC , activation at 100 µM reported as -14.8

Entry CC1=CCC2CC1C2(C)C (centres unmarked) , activation at 100 µM reported as -3.07

---

- system: TRPA1 receptor (Homo sapiens, UniProt O75762)
- Construct: expressed in transfected cells; host or cells: HEK cell line
- procedure text: cell-based
- measurement setup: HEK293; percentage of the control (allyl isothiocyanate) calcium count; material dissolved in DMSO at 100 micromolar; HEK cells with TRPA1; direct addition; read-out: TRPA1 Direct addition
Here the recorded activation at 100 µM is given for each entry.
Output spec: scalar in %, unitless text.

Below are worked cases with known answers.
C=CCc1ccc(OC(=O)c2ccccc2)c(OC)c1 [Eugenol benzoate] | 22.9
CC(C)=CCCC(C)=CCCC(C)=CCO | 0.1
CC/C=C\CCCCC=O [cis-6-Nonenal] | 2.76
CC(C)CCOC(=O)CC(C)C [Isoamyl Isovalerate] | 0.18

Entry CCC(=O)OCc1ccccc1 [Benzyl Propionate] , activation at 100 µM reported as 0.52

Entry CCOC(=O)c1ccccc1O [Ethyl Salicylate] , activation at 100 µM reported as -0.53

Entry CCCC=O , activation at 100 µM reported as 28.9

---

- system: TRPA1 receptor (Homo sapiens)
- Construct: expressed in transfected cells; host or cells: HEK cell line
- procedure text: cell-based
- measurement setup: HEK293; percentage of the control (allyl isothiocyanate) calcium count; material dissolved in DMSO at 100 micromolar; HEK cells with TRPA1; direct addition; read-out: TRPA1 Direct addition
property label: activation at 100 µM (%)
Output spec: scalar in %, unitless text.

CCCCCCOC(=O)CCCCC [Hexyl Hexanoate] | 0.07

Entry CC(C)=CCCC(C)CCOCC=O (stereo not drawn) [Citronellyl Oxyacetaldehyde] , activation at 100 µM reported as 148

Entry CC1=CCC(C(C)(C)O)CC1 (stereo not drawn) [Alpha-Terpineol] , activation at 100 µM reported as 15.8

Entry CCCC(=O)OCC [Ethyl Butyrate] , activation at 100 µM reported as -0.32

Entry CC(C)=CCCC(C)C=O (stereo not drawn) [2,6-Dimethyl-5-Heptenal] , activation at 100 µM reported as -0.15

Entry CC(C)=CCC/C(C)=C/CO [Geraniol] , activation at 100 µM reported as 5.19

Entry CC(=O)OCCc1ccccc1 [Phenylethyl Acetate] , activation at 100 µM reported as -22.5

Entry CCCCCCCCC=O [Nonanal] , activation at 100 µM reported as -14

Entry CCCCCCCCCCCCO [Lauryl Alcohol] , activation at 100 µM reported as -0.86

---

Here the recorded TRPA1 Direct addition is given for each entry.
- system: TRPA1 receptor (Homo sapiens)
- Construct: expressed in transfected cells; host or cells: HEK cell line
- procedure text: cell-based
Output spec: scalar in %, unitless text.

Below are worked cases with known answers.
CC(=O)[O-].CC(=O)[O-].[Zn+2] [Zinc Acetate] | −0.66
O=S(=O)([O-])NC1CCCCC1.[Na+] [Sodium Cyclamate] | −4.07
CC(O)C(=O)[O-].CC(O)C(=O)[O-].[Mg+2] (centres unmarked) [Magnesium Lactate] | −4.49

Entry CC=Cc1ccc(OCc2ccccc2)c(OC)c1 , TRPA1 Direct addition reported as −3.8
